Ref: ChEMBL document CHEMBL5030559

pKi: −log10 of the molar value.
Quick note: these are pKi numbers for system: Autotaxin (Homo sapiens)

{"smi": "CCc1nc2ccc(N3CCN(CC(=O)N4CC[C@@H](F)C4)CC3)cn2c1N(C)c1nc(-c2ccc(F)cc2)c(C#N)s1", "target": "Autotaxin (Homo sapiens)", "pKi": 7.85}
{"smi": "CCc1nc2ccc(N3CCN(CC(=O)N4CC(F)C4)CC3)cn2c1N(C)c1nc(-c2ccc(F)cc2)c(C#N)s1", "target": "Autotaxin (Homo sapiens)", "pKi": 7.39}
